Source listed as patent US20150057363A1.

# Experimental protocol: Pharmacokinetics of alpha-tocotrienol quinone in fasted dogs
# Condition parameters: dog, in vivo, po, 10 mg/kg
Metric: bioavailability

# get_value(readout='bioavailability', item= CC(C)=CCC/C(C)=C/CC/C(C)=C/CCC(C)(O)CCC1=C(C)C(=O)C(C)=C(C)C1=O (stereo not shown) )
~16%

###

# Experimental protocol: Pharmacokinetics of alpha-tocotrienol quinone in rats
# Type: in vivo, rat
# Condition parameters: rat, in vivo, 10 mg/kg
Metric: bioavailability

Please look up its bioavailability: CC(C)=CCC/C(C)=C/CC/C(C)=C/CCC(C)(O)CCC1=C(C)C(=O)C(C)=C(C)C1=O (stereo not shown)
~90%
